# System: MOLT-4 leukemia
# PROTOCOL DESCRIPTION: NCI-60 one-dose screen, 48 h (100 = growth as untreated, 0 = no growth, -100 = all killed)
# ASSAY SETUP: 10 µM
About 83,000 compounds went through this panel and 20% of them were active in at least one assay; those are over-represented in the sample as a whole.
MEASURE NAME: growth (%)
Respond with the bare value in %.

-- ask Please report growth for the following molecule: C[C@@H]1C(=O)N(C[C@H](Cc2ccccc2)NC(=O)OCc2ccccc2)[C@]1(Cc1ccccc1)C(=O)OCc1ccccc1
-- reply -0.259

-- ask Please report growth for the following molecule: O=[N+]([O-])C1CC2C=CC1C2 (stereo not drawn)
-- reply 96.1

-- ask Please report growth for the following molecule: COc1ccc2oc(=O)cc(C3c4ccc([nH]4)C(c4cc(=O)oc5ccc(OC)cc45)c4ccc([nH]4)C(c4cc(=O)oc5ccc(OC)cc45)c4ccc([nH]4)C(c4cc(=O)oc5ccc(OC)cc45)c4ccc3[nH]4)c2c1 (stereo not drawn)
-- reply -8.61

-- ask Please report growth for the following molecule: CC(=O)/C(=C\c1ccc(Cl)cc1)c1ccccc1
-- reply 11.9

-- ask Please report growth for the following molecule: Cc1noc(C)c1-c1ccc2nc(NC(=O)[C@H]3CCN(C#N)C3)cn2c1
-- reply 95.9

-- ask Please report growth for the following molecule: O=C1CC[C@@H](C(=O)N[C@H]2CSSC[C@@H](C(=O)NCCc3ccccc3)NC(=O)[C@H](Cc3ccccc3)NC(=O)[C@@H]3CCCN3C(=O)[C@@H]3CCCN3C2=O)N1
-- reply 85.8

-- ask Please report growth for the following molecule: FC(F)(F)c1ccc(-c2cnc(Br)nc2NC2CCCCCC2)cc1
-- reply 57

-- ask Please report growth for the following molecule: C#C[C@]1(O)CC[C@H]2[C@@H]3CC[C@H]4CC(F)(F)CC[C@]4(C)[C@H]3CC[C@@]21C
-- reply 95.7
